Value source: the supplement of paper PMC10899765

- System: MCF10A
- assay name: percent viability (nuclei count relative to siNT); higher = more viable cells
- conditions used: 20 nM; 72 h
Reported percent viability maps to class as: lower band = under 30%, central band = from 30% up to 70%, upper band = 70% and over

1. CUGGUUUCACAUGGUGGCUUAG [hsa-miR-29b-2-5p]
central band
2. UGGAGUCCAGGAAUCUGCAUUUU [hsa-miR-1289]
lower band
3. UAGAGGAAGCUGUGGAGAGA [hsa-miR-3125]
lower band
4. UGCGACAUUGGAAGUAGUAUCA [hsa-miR-3683]
central band
5. AUAGUCCGAGUAACGUCGGGGC [hsa-miR-6723-5p]
central band
6. CAGGAUGUGGUCAAGUGUUGUU [hsa-miR-1265]
upper band
7. UGGGCUGCUGAGAAGGGGCA [hsa-miR-6829-5p]
lower band
8. UGGGGGUGUGGGGAGAGAGAG [hsa-miR-7110-5p]
central band
9. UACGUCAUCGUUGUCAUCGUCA [hsa-miR-598]
upper band
10. CGGGCUGUCCGGAGGGGUCGGCU [hsa-miR-4741]
central band
11. UGAUGGAGCUGGGAAUACUCUG [hsa-miR-8082]
lower band
12. AGUGGCAAAGUCUUUCCAUAU [hsa-miR-3688-5p]
central band
13. CUCGUGGGCUCUGGCCACGGCC [hsa-miR-3677-3p]
central band
14. GUUGGGGUGCAGGGGUCUGCU [hsa-miR-5572]
lower band
15. CCCUGGGGUUCUGAGGACAUG [hsa-miR-6852-5p]
central band
16. CAGUGUUCAGAGAUGGA [hsa-miR-4255]
upper band
17. CCAGAGCAGCCUGCGGUAACAGU [hsa-miR-6501-3p]
central band
18. GCUACUUCACAACACCAGGGCC [hsa-miR-138-1-3p]
upper band
19. UUUCAGAUAACAGUAUUACAU [hsa-miR-3942-3p]
central band
20. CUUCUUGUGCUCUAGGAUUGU [hsa-miR-578]
central band
21. AAAAUGAAAUGAGCCCAGCCCA [hsa-miR-3646]
central band
22. GUGACUGAUACCUUGGAGGCAU [hsa-miR-4439]
central band
23. AAAGGAGGAAAUAGGCAGGCCA [hsa-miR-3173-3p]
lower band
24. GAGACAGGUUCAUGCUGCUA [hsa-miR-4524b-3p]
lower band
25. GUGGAGUCCUGGGGAAUGGAGA [hsa-miR-3198]
lower band
26. GUAGCACCUUGCAGGAUAAGGU [hsa-miR-5682]
upper band
27. UAGCAAUACAGUACAAAUAUAGU [hsa-miR-4703-5p]
upper band
28. UGGCCCAACCUAUUCAGUUAGU [hsa-miR-3136-3p]
upper band
29. ACUGUCACUUCUCUGCCCAUAG [hsa-miR-6773-3p]
central band
30. CUGGGCCCGCGGCGGGCGUGGGG [hsa-miR-6724-5p]
upper band
31. CUGCAGACUCGACCUCCCAGGC [hsa-miR-1273h-3p]
central band
32. UGCCCCACCUGCUGACCACCCUC [hsa-miR-4758-3p]
upper band
33. GUGUCUGGGCGGACAGCUGC [hsa-miR-1231]
central band
34. CGAGCCUCAAGCAAGGGACUU [hsa-miR-2114-3p]
central band
35. UCUCUGGUCUUUCCUUGACAG [hsa-miR-6764-3p]
lower band
36. ACAGUAGUCUGCACAUUGGUUA [hsa-miR-199b-3p]
upper band
37. UGGGAUGAGGGAUUGAAGUGGA [hsa-miR-5187-5p]
lower band
38. ACCGUGCAAAGGUAGCAUA [hsa-miR-1973]
upper band
39. AUUGUCCUUGCUGUUUGGAGAU [hsa-miR-2355-3p]
central band
40. CGGGGUCGGCGGCGACGUG [hsa-miR-7704]
central band
41. AUACCUCAUCUAGAAUGCUGUA [hsa-miR-4777-3p]
central band
42. UUUGGCAAUGGUAGAACUCACACU [hsa-miR-182-5p]
lower band
43. UGAGGGAGGAGACUGCA [hsa-miR-4419a]
lower band
44. CGUGUUCACAGCGGACCUUGAU [hsa-miR-124-5p]
upper band
